B1: SAM and SH3 domain-containing protein 1, residues 630 to 700; numbered along this chain, O94885 (parent)
chain: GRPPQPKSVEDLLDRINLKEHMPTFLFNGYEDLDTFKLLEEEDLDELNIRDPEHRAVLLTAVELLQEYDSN

Variants of: B1
Test: abundance fitness (aPCA) (normalised: wild type 0, dead -1); higher = more abundant; growth selection in yeast, the domain comes from the species named
Details: Homo sapiens
Item-by-item account of abundance fitness

Mut	abundance fitness
F25S	-0.706
D51C	-0.396
Y68R	0.094
F27P	-0.655
K37H	-0.76
Q66T	-0.347
L59P	-0.445
K7C	-0.533
I49V	-0.398
N48F	-0.983
Q5C	0.007
T35A	0.067
R15C	-0.374
V57R	0.418
Q5S	-0.334
E20F	-0.502
K19C	-0.419
A61M	-0.324
L64W	0.148

Data origin: the Human Domainome abundance scans (Beltran et al. 2025)
